The values you see were collected from PubChem BioAssay (NCATS).

Test: Viability qHTS for spleen associated tyrosine kinase inhibitor (SYKi) drug resistant MV4-11 cells (AID 1963824); also: nearly all actives have a fitted effect of over 35% in size; also: potency is read from the fitted curve at half-maximal effect
Details: SYKi-resistant MV4-11 viability, CellTiter-Glo, 72 h; series mostly up to 45 µM
Records with an inconclusive call do not appear. Activity calls are given as the source filed them. Calls follow the shape of the dose curve; as a rule, active = well fitted cell-killing curve with a large enough effect; inconclusive = small, poorly fitted or top-dose-only effect, or effect the other way; inactive = no such curve, though single readings can be large or run the other way.
property-label: Potency

Solved cases below.
# compound, property-label, val
data = [
    ("CCc1cc2c(cc1N1CCC(N3CCOCC3)CC1)C(C)(C)c1[nH]c3cc(C#N)ccc3c1C2=O", "Potency", "0.632 µM (active)"),
    ("C[C@@H]1CN(CC(=O)Nc2ccc3c(c2)Cc2cccc(-c4cc(=O)cc(N5CCOCC5)o4)c2S3)C[C@H](C)O1", "Potency", "4.68 µM (active)"),
    ("Cc1noc(-c2ccc(-c3ccc(C4(C(=O)O)CC4)cc3)cc2)c1NC(=O)O[C@H](C)c1ccccc1", "Potency", "11.8 µM (active)"),
    ("Cc1nc2sccn2c(=O)c1CCN1CCC(=C(c2ccc(F)cc2)c2ccc(F)cc2)CC1", "Potency", "11.9 µM (active)"),
    ("CC1(CO)CC(O)[C@]2(C(=O)O)CCC34CC3(C=CC3[C@]5(C)C(CC[C@]34C)C(C)(CO)[C@@H](O)[C@H](O)[C@@H]5O)C2C1 (some centres undefined)", "Potency", "11.2 µM (active)"),
]

Answer with reported Potency of CNC(=O)c1ccc2c(c1)CCO[C@H]2CCN1CCN(c2ccc(C(N)=O)cc2)CC1 inactive

Answer with reported Potency of COC(=O)C1=COC(O[C@@H]2O[C@H](CO)[C@@H](O)[C@H](O)[C@H]2O)[C@H]2[C@@H]1[C@H](OC(=O)CCc1ccc(O)cc1)C[C@]2(C)O (some centres undefined) inactive

Answer with reported Potency of CCN(CC)C(=O)C1CN2CCc3cc(OC)c(OC)cc3C2CC1OC(C)=O (centres undefined) inactive

Answer with reported Potency of COc1cc(O)c(C(=O)CCc2ccc(O)cc2)c(O[C@@H]2O[C@H](CO)[C@@H](O)[C@H](O)[C@H]2O)c1 11.2 µM (active)

Answer with reported Potency of CN(C)c1nc(Cc2ccc(NC(=O)c3ccc(C(F)(F)F)cc3)cc2)nc(N(C)C)c1CC(=O)O inactive

Answer with reported Potency of C[C@@]12C(=O)OC(=O)[C@]1(C)C1CCC2O1 2.99 µM (active)

Answer with reported Potency of N=C1N=C(N)c2cc3ccccc3cc21 38.6 µM (active)

* * *

Assay: Cellular viability qHTS for adrenocortical cancer (ACC) cell line NCI-H295R (AID 1963990);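 also: 0% = DMSO only wells and -100% = full killing with cytotoxic reference compound; nearly all actives have a fitted effect of over 60% in size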
Settings: CellTiter-Glo ATP luminescence, 48 h; series mostly up to 46.1 µM
Inconclusive results are not listed. Activity calls are given as the source filed them. Calls follow the shape of the dose curve; as a rule, active = well fitted cell-killing curve with a large enough effect; inconclusive = small, poorly fitted or top-dose-only effect; inactive = flat fitted curve, though single readings scatter.
Hi there, use one of these labels in your reply, thanks! true (1) = active, false (0) = inactive

Each compound tested received a call. Report the one for O=C(CCCN1CC=C(n2c(=O)[nH]c3ccccc32)CC1)c1ccc(F)cc1 . false (0)

Each compound tested received a call. Report the one for CC(=O)N[C@@H](Cc1ccc(O)cc1)C(=O)O . false (0)

Each compound tested received a call. Report the one for CCCCOC(=O)CC(CC(=O)OCCCC)(OC(C)=O)C(=O)OCCCC . false (0)

* * *

Experiment: Quantitative highthroughput screen to assess conditional lethalithy of P12 Ichikawa cells grown in Human Plasma-Like Medium with dialyzed fetal bovine serum (HPLM+ds) (AID 1963879); also: nearly all actives have a fitted effect of over 35% in size
Conditions: ATP luminescence, 48 h; viability; series mostly up to 45.8 µM
Inconclusive results are not listed. Active and inactive are the calls of the source. Calls follow the shape of the dose curve; as a rule, active = well fitted cell-killing curve with a large enough effect; inconclusive = small, poorly fitted or top-dose-only effect; inactive = flat fitted curve, though single readings scatter.
Hi there, use one of these labels in your reply, thanks! y (active), n (inactive)

Take a look at these entries with their results.
# compound, assigned-category
measured = [
    ("O=C(O)Cc1cccc(OCCCN(Cc2cccc(C(F)(F)F)c2Cl)CC(c2ccccc2)c2ccccc2)c1", "n"),
    ("COc1cc(NCc2ccc3nc(N)nc(N)c3c2C)cc(OC)c1OC", "y"),
    ("C[C@@H]1CCO[C@H]2Cn3cc(C(=O)NCc4ccc(F)cc4F)c(=O)c(O)c3C(=O)N12", "n"),
    ("CCN1CCCC1CNC(=O)c1cc(S(=O)(=O)CC)c(N)cc1OC (stereo not given)", "n"),
]

Each compound tested received a call. Report the one for COc1ccc(-c2coc3cc(O)ccc3c2=O)cc1 . n

Each compound tested received a call. Report the one for CCC[C@H](N[C@@H](C)C(=O)N1[C@@H]2CCCC[C@H]2C[C@H]1C(=O)O)C(=O)OCC . n

Each compound tested received a call. Report the one for CC(C)(Sc1ccc(CCN(CCCCC2CCCCC2)C(=O)NC2CCCCC2)cc1)C(=O)O . n

Each compound tested received a call. Report the one for Cc1cncc2cccc(S(=O)(=O)N3CCCN(C(=O)CN)C[C@@H]3C)c12 . y

Each compound tested received a call. Report the one for c1cc(CN2CCCNCCNCCCNCC2)ccc1CN1CCCNCCNCCCNCC1 . n

Each compound tested received a call. Report the one for O=C(O)c1cn(-c2ccc(F)cc2)c2cc(N3CCNCC3)c(F)cc2c1=O . n
